Data origin: PubChem BioAssay

Test: restoration of touch response, mutant HTT neurons – whole organism, C. elegans mechanosensory neurons, N-terminal huntingtin (AID 1599)
Settings: C. elegans polyQ-huntingtin mechanosensory neurons, stronger effect = higher value
Measured potencies and affinities stand elsewhere.
Assay endpoint: rescue above control
Respond numerically, and do not add a unit to the figure.

Problem: Reported rescue above control, compound N=C(N)N : ____
Solution: -2.24

Problem: Next: Cc1ccnc(NS(=O)(=O)c2ccc(N)cc2)n1
Solution: 11.1

Problem: Next: NC(=O)c1ncn([C@@H]2O[C@H](CO)[C@@H](O)[C@H]2O)c1O
Solution: -8.77

Problem: Next: Fc1ccc(C(c2ccc(F)cc2)N2CCN(C/C=C/c3ccccc3)CC2)cc1
Solution: 11.5

Problem: Next: NC(=O)NC(=O)Cc1ccccc1
Solution: -4.86

Problem: Next: CC1(C)S[C@@H]2[C@H](NC(=O)[C@H](N)c3ccccc3)C(=O)N2[C@H]1C(=O)O
Solution: -3.83

###

Assay: restoration of touch response, mutant HTT neurons – whole organism, C. elegans mechanosensory neurons, N-terminal huntingtin (AID 1599)
Conditions: C. elegans polyQ-huntingtin mechanosensory neurons, stronger effect = higher value
Entries with a potency or affinity are not part of this list.
For each entry below, report its rescue above control value.
Respond numerically, and do not add a unit to the figure.

Problem: Reported rescue above control, compound CC(=O)Oc1ccccc1C(=O)O : ____
Solution: 9.45

Problem: Next: CN(Cc1cnc2nc(N)nc(N)c2n1)c1ccc(C(=O)N[C@@H](CCC(=O)O)C(=O)O)cc1
Solution: -10.9

Problem: Next: COc1ccc(C(=O)c2ccccc2)c(O)c1
Solution: 9.82

Problem: Next: CN(C)CCC=C1c2ccccc2C=Cc2ccccc21
Solution: 5.55

Problem: Next: Oc1ccc(Cl)c2cccnc12
Solution: -0.67

Problem: Next: CC(=O)N(O)CCCCCNC(=O)CCC(=O)N(O)CCCCCNC(=O)CCC(=O)N(O)CCCCCN
Solution: -3.69

###

Experiment: viability loss with induced miR-34 in A549 – imaging, A549 dox-inducible miR-34, nuclei and caspase counts, primary screen (AID 1347080); further: test concentration not given here
Conditions: A549 miR-34 inducible, Hoechst nuclei count, 48 h; measured here: total cells without miR-34 induction
Assay endpoint: cell count
Respond numerically, and do not add a unit to the figure.

Problem: Reported cell count, compound CN(C)CCc1c[nH]c2ccc(CS(=O)(=O)N3CCCC3)cc12 : ____
Solution: 7640

Problem: Next: COc1ccc(C2C(=O)c3ccccc3C2=O)cc1
Solution: 12700

Problem: Next: CCCCC1(COC(=O)CCC(=O)O)C(=O)N(c2ccccc2)N(c2ccccc2)C1=O
Solution: 9850

Problem: Next: OC(CCN1CCCCC1)(c1ccccc1)c1ccccc1
Solution: 9810

Problem: Next: C[C@]12CCC(=O)C=C1C=C[C@@H]1[C@@H]2CC[C@@]2(C)[C@H]1CC[C@@]21CCC(=O)O1
Solution: 10300

Problem: Next: CC(=O)Oc1cccc(O)c1
Solution: 13000

Problem: Next: NC(=O)c1ccc([N+](=O)[O-])cc1Cl
Solution: 13200

Problem: Next: CNC[C@H](O)[C@@H](O)[C@H](O)[C@H](O)CO
Solution: 10400

Problem: Next: CC1CCC(NC(=O)N(CCCl)N=O)CC1 (stereo unspecified)
Solution: 11500

Problem: Next: CC1(C)O[C@@H]2C[C@H]3[C@@H]4C[C@H](F)C5=CC(=O)CC[C@]5(C)[C@H]4[C@@H](O)C[C@]3(C)[C@]2(C(=O)CO)O1
Solution: 6100

Problem: Next: S=P(N1CC1)(N1CC1)N1CC1
Solution: 3080

Problem: Next: O=C(CCCCC(=O)Nc1c(I)cc(I)c(C(=O)O)c1I)Nc1c(I)cc(I)c(C(=O)O)c1I
Solution: 10900

Problem: Next: O=c1c(-c2ccccc2)c1-c1ccccc1
Solution: 5830

Problem: Next: OC[C@H]1O[C@@H](O[C@@H]2[C@@H](CO)O[C@](O)(CO)[C@H]2O)[C@H](O)[C@@H](O)[C@H]1O
Solution: 12500

Problem: Next: C[C@@H]1C[C@H]2[C@@H]3C[C@H](F)C4=CC(=O)C=C[C@]4(C)[C@@]3(F)[C@@H](O)C[C@]2(C)[C@@]1(O)C(=O)CO
Solution: 6940

Problem: Next: CCN(CC)CCNC(=O)c1cc(Br)c(N)cc1OC
Solution: 9660

Problem: Next: C#C[C@]1(O)CC[C@H]2[C@@H]3CCc4cc(OC)ccc4[C@H]3CC[C@@]21C
Solution: 10400

Problem: Next: CN(C)c1ccc2nc3ccc(=[N+](C)C)cc-3sc2c1
Solution: 3280

Problem: Next: COCc1c(C(C)C)nc(C(C)C)c(/C=C/[C@@H](O)C[C@@H](O)CC(=O)O)c1-c1ccc(F)cc1
Solution: 1240

Problem: Next: Cc1cc(C)cc(OCC2CNC(=O)O2)c1 (stereo unspecified)
Solution: 12400

Problem: Next: Cc1[nH]cnc1CN1CCc2c(c3ccccc3n2C)C1=O
Solution: 9940
